target: human CB1 (Homo sapiens); assay: NanoBiT CB1 β-arrestin 2 recruitment assay; type: cell-based; parameters: expressed in transfected cells; conditions: Table 4; reference standards and precursor:final SCRA mixtures; total (combined) SCRA concentration; n ≥ 3; read-out: Potency (EC50, nM) β-arrestin 2
Sequence (P21554 whole entry): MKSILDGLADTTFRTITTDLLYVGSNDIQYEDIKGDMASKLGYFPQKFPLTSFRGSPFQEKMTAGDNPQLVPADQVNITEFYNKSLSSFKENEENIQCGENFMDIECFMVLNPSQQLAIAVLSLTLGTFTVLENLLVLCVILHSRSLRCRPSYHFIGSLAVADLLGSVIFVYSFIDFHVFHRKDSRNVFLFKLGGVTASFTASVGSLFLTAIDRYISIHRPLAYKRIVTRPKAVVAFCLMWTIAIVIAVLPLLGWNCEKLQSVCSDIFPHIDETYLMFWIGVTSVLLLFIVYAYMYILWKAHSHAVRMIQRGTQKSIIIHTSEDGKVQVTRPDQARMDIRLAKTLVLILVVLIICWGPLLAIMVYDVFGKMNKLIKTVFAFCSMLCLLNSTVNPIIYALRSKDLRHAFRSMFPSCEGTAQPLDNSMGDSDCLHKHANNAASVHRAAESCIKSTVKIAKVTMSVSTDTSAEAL
Sequence (P32121 whole entry partner): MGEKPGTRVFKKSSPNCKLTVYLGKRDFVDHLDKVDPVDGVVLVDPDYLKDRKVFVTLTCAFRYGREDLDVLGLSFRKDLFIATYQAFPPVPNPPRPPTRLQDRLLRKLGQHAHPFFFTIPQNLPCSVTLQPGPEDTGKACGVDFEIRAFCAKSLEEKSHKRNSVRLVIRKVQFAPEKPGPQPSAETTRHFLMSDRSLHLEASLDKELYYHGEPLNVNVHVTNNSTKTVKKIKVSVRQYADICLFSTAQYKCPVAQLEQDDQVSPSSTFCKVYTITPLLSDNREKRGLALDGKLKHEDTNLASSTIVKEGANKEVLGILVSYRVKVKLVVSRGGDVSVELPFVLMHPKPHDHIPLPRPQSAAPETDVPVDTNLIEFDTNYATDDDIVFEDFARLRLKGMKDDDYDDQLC
result type: EC50 (nM)
I only need the number, in nM, no unit after it.

Query :: # query: EC50 of entry CCCCCn1cc(C(=O)c2cccc3ccccc23)c2ccccc21 [JWH-018, reference compound]
Result :: 9.55

----------
target: human CB1 (Homo sapiens); test: NanoBiT CB1 β-arrestin 2 recruitment assay; assay type: cell-based; set-up: expressed in transfected cells; settings: Table 5; Seizure (precursor seized in Switzerland); read-out: Potency (EC50, nM) β-arrestin 2
result type: EC50 (nM)
I only need the number, in nM, no unit after it.

Query :: Short answer please: EC50, human CB1 (Homo sapiens), entry COC(=O)C(NC(=O)c1n[nH]c2ccccc12)C(C)(C)C (stereo not shown)
Result :: 2190

The reported measurements were obtained from paper PMC12408681.
